target: KLC1 TPR1-6 fragment (human KNS2 residues 205-501) (human, UniProt Q07866 205-501); experiment: ITC
Sequence (Q07866 205-501): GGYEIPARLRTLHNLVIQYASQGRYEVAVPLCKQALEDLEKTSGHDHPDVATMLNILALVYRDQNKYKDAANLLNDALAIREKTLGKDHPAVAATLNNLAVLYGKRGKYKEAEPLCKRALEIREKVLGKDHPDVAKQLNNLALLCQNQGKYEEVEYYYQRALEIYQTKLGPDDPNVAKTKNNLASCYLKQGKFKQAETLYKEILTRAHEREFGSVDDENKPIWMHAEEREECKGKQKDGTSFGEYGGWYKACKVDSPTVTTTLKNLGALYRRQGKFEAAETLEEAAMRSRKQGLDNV
TEST_READOUT: pKd
Scale: negative log10 of molar concentration, which is what pKd denotes.

Which pKd is listed for ESEMEDAYHEHQANLLR [WT SFPQ peptide spanning the Y-acidic motif] ?
5.42

All values here come from paper PMC7721913.
